These entries and their values trace back to patent US20260242735A1.

Each entry below carries its reported Mean % WT Binding.
Experimental target: human CD33 S71A (human, UniProt P20138 18-364)
Sequence (P20138 18-364 S71A limits assumed): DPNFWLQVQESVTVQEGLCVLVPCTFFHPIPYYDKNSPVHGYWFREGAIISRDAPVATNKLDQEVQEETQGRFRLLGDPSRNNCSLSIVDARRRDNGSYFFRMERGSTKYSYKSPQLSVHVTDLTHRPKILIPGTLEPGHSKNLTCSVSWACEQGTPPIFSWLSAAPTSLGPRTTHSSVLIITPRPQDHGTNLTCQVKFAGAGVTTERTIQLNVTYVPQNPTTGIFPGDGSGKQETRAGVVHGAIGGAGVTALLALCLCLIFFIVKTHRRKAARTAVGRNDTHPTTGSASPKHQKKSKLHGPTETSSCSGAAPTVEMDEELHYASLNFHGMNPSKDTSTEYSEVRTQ
Measurement description: alanine scan, flow cytometry;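 further: HEK293-T cells transiently expressing single-residue alanine mutants of CD33 (alanine swapped to serine), antibody binding read by fluorescence in duplicate, background-subtracted, expressed relative to wild-type CD33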

Binder: Refmab #1 (antibody, V domains shown, Full-length format is human IgG1 (Absolute Antibody Ab00283-10.0); The alanine scan used IgG or Fab; also called hP67.6) VH: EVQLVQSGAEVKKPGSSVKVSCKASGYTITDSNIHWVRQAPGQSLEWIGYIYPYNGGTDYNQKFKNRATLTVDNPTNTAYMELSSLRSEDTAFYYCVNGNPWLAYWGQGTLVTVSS VL: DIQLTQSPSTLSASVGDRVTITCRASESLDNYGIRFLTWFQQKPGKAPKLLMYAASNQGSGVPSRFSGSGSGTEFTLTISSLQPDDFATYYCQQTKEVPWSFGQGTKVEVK
Mean % WT Binding / % WT: 108
--
Binder: Refmab #3 (antibody, V domains shown, Full-length format is human IgG1 Fc silent (PG-LALA); The alanine scan used IgG or Fab) VH: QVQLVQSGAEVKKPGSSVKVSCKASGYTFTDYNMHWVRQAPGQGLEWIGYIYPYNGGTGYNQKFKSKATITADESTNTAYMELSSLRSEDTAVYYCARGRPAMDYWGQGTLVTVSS VL: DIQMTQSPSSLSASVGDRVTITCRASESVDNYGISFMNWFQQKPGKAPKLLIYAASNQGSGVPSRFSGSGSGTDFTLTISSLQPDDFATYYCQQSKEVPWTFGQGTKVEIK
Mean % WT Binding / % WT: 118
--
Binder: Refmab #4 (antibody, V domains shown, Full-length format is human IgG1 Fc silent (PG-LALA); The alanine scan used IgG or Fab) VH: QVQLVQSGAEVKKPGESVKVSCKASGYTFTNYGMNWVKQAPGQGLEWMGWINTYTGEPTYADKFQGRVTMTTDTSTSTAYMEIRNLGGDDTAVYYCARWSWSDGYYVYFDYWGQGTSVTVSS VL: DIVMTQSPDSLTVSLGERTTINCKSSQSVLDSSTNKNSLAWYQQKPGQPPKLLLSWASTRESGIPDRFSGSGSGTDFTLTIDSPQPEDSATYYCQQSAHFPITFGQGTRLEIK
Mean % WT Binding / % WT: 99.4
--
Binder: Refmab #2 (antibody, V domains shown, Full-length format is human IgG1 Fc silent (PG-LALA); The alanine scan used IgG or Fab) VH: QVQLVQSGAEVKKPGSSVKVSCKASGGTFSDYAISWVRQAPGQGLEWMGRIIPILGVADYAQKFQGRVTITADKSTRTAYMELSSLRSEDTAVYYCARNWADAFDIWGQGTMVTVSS VL: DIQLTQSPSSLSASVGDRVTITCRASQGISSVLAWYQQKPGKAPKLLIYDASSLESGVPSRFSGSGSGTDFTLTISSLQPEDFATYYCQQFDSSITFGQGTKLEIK
Mean % WT Binding / % WT: 112
